These entries and their values trace back to PubChem BioAssay AID1159580.

assay: chemical genetic growth profiling, strain panel (AID 1159580);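 also: tested at 20 µM; growth read once vehicle control cultures reached saturation at 30 °C; 1 = growth at the plate median or of vehicle wells; lower values mean less growth of the strain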; conditions: S. cerevisiae deletion strains, growth OD, locus YCL011C, strain gbp2
In all, about 5,500 compounds went through this assay and about 2,000 (36%) were called active. Not shown: some 18% with an inconclusive outcome. Rule as the data show it: active = normalized growth mostly below about 0.91 (no sharp cut-off); inconclusive = no clear call, values can overlap the other calls; inactive = mostly above about 0.92. This is one part of the list.
Outcomes: active, inactive

[
  {
    "compound": "c1ccc([C@H]2CN3CCSC3=N2)cc1",
    "qualitative.label": "inactive"
  },
  {
    "compound": "CCCCc1nc(Cl)c(CO)n1Cc1ccc(-c2ccccc2-c2nn[nH]n2)cc1",
    "qualitative.label": "inactive"
  },
  {
    "compound": "O=C1c2ccccc2C(=O)C1c1ccccc1",
    "qualitative.label": "inactive"
  },
  {
    "compound": "CC(=O)OC[C@H]1O[C@@H](Oc2cc(OC(C)=O)c3c(=O)cc(-c4ccc(OC(C)=O)cc4)oc3c2)[C@H](OC(C)=O)[C@@H](OC(C)=O)[C@@H]1OC(C)=O",
    "qualitative.label": "inactive"
  },
  {
    "compound": "CN(C)CCc1c[nH]c2ccc(C[C@H]3COC(=O)N3)cc12",
    "qualitative.label": "inactive"
  },
  {
    "compound": "NC(=O)N1c2ccccc2C=Cc2ccccc21",
    "qualitative.label": "inactive"
  },
  {
    "compound": "CCc1cccc2c3c([nH]c12)C(CC)(CC(=O)O)OCC3 (configuration not stated)",
    "qualitative.label": "inactive"
  },
  {
    "compound": "COc1cc2c(cc1O)CCNC2C (configuration not stated)",
    "qualitative.label": "inactive"
  },
  {
    "compound": "CC(=O)O[C@@H]1CC[C@]2(C)C3CC[C@]4(C)C(=O)CCC4C3CC[C@H]2C1 (some centres not stated)",
    "qualitative.label": "inactive"
  },
  {
    "compound": "OCc1c[nH]c2ccccc12",
    "qualitative.label": "active"
  },
  {
    "compound": "COc1ccc(C2C(=O)c3ccccc3C2=O)cc1",
    "qualitative.label": "inactive"
  },
  {
    "compound": "Cc1ccc(N(CC2=NCCN2)c2cccc(O)c2)cc1",
    "qualitative.label": "inactive"
  },
  {
    "compound": "Cc1onc(-c2ccccc2Cl)c1C(=O)N[C@@H]1C(=O)N2[C@@H]1SC(C)(C)[C@@H]2C(=O)O",
    "qualitative.label": "inactive"
  },
  {
    "compound": "CCC1(CC)C(=O)C=CNC1=O",
    "qualitative.label": "inactive"
  },
  {
    "compound": "C[C@]12CCC(=O)C=C1CCC1C2C(=O)C[C@@]2(C)C1CC[C@]2(O)C(=O)CO (some centres not stated)",
    "qualitative.label": "inactive"
  },
  {
    "compound": "CN1CCN(CC(=O)N2c3ccccc3C(=O)Nc3cccnc32)CC1",
    "qualitative.label": "inactive"
  },
  {
    "compound": "CC[C@H]1CN2CCc3cc(OC)c(OC)cc3C2C[C@@H]1CC1NCCc2cc(OC)c(OC)cc21 (some centres not stated)",
    "qualitative.label": "inactive"
  },
  {
    "compound": "CNS(=O)(=O)Cc1ccc2[nH]cc(CCN(C)C)c2c1",
    "qualitative.label": "inactive"
  },
  {
    "compound": "NCCNCCNCCN",
    "qualitative.label": "inactive"
  },
  {
    "compound": "CC1(C)S[C@@H]2[C@H](NC(=O)Cc3ccccc3)C(=O)N2[C@H]1C(=O)O",
    "qualitative.label": "inactive"
  },
  {
    "compound": "CNC(Cc1c[nH]c2ccccc12)C(=O)O (configuration not stated)",
    "qualitative.label": "inactive"
  },
  {
    "compound": "CC(=O)Oc1cc2c(c(C)c1OC(C)=O)CC1OC13C2(C)CCC1(C)C2CC(C)(C(=O)O)CCC2(C)CCC13C (configuration not stated)",
    "qualitative.label": "inactive"
  },
  {
    "compound": "CC(=O)CC1CCCCN1 (configuration not stated)",
    "qualitative.label": "inactive"
  },
  {
    "compound": "CC(=O)Oc1cccc2c1C(=O)c1c(OC(C)=O)cc(C(=O)O)cc1C2=O",
    "qualitative.label": "inactive"
  },
  {
    "compound": "C[C@]12CCC3C(CC[C@H]4C[C@H](OS(=O)(=O)O)CC[C@]34C)C1CCC2=O (some centres not stated)",
    "qualitative.label": "inactive"
  },
  {
    "compound": "CC(=O)O[C@H]1CC[C@]2(C)C3CC[C@@]4(C)C(CC5O[C@@]6(CCC(C)CO6)[C@@H](C)C54)C3CC[C@@H]2C1 (some centres not stated)",
    "qualitative.label": "inactive"
  },
  {
    "compound": "CC(=O)O[C@H]1CC[C@]2(C)C3CC(=O)[C@]4(C)C(C(C)=O)=CCC4C3CC[C@H]2C1 (some centres not stated)",
    "qualitative.label": "inactive"
  },
  {
    "compound": "CC1(C)S[C@@H]2[C@H](NC(=O)[C@H](C(=O)O)c3cccs3)C(=O)N2[C@H]1C(=O)O",
    "qualitative.label": "inactive"
  },
  {
    "compound": "COc1cnc(NS(=O)(=O)c2ccc(N)cc2)nc1",
    "qualitative.label": "inactive"
  },
  {
    "compound": "CC1=C(O)C(=O)C=C2C1=CC=C1[C@@]2(C)CC[C@@]2(C)[C@@H]3C[C@](C)(C(=O)O)CC[C@]3(C)CC[C@]12C",
    "qualitative.label": "active"
  },
  {
    "compound": "CCCCCCCCCCCCCCCCCCOCC(O)CO (configuration not stated)",
    "qualitative.label": "inactive"
  },
  {
    "compound": "CC(=O)N[C@@H](Cc1c[nH]c2ccccc12)C(=O)O",
    "qualitative.label": "inactive"
  },
  {
    "compound": "CC(=O)OC1CCC2(C)C3CC(=O)C4(C)C(CC5OC6(CCC(C)CO6)[C@@H](C)C54)C3CC[C@H]2C1 (some centres not stated)",
    "qualitative.label": "inactive"
  },
  {
    "compound": "CN1C(=O)CCS(=O)(=O)C1c1ccc(Cl)cc1 (configuration not stated)",
    "qualitative.label": "inactive"
  },
  {
    "compound": "COc1cccc(OC)c1C(=O)N[C@@H]1C(=O)N2[C@@H]1SC(C)(C)[C@@H]2C(=O)O",
    "qualitative.label": "inactive"
  },
  {
    "compound": "COC1(C)CCC2OC2(C)CCC2C1CC2(C)C (configuration not stated)",
    "qualitative.label": "inactive"
  },
  {
    "compound": "COc1cc(/C=C/C(=O)N2CCC=CC2=O)cc(OC)c1OC",
    "qualitative.label": "inactive"
  }
]

====

assay: chemical genetic growth profiling, strain panel (AID 1159580);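 also: tested at 20 µM; growth read once vehicle control cultures reached saturation at 30 °C; 1 = growth at the plate median or of vehicle wells; lower values mean less growth of the strain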; settings: S. cerevisiae deletion strains, growth OD, locus YML016C, strain PPZ1, hits give low values
The whole screen tested about 5,500 compounds, of which about 2,000 (36%) were called active. Inconclusive results (about 18%) are left out. Some of the results follow. Where a SMILES comes first, the peptide text is derived from it. Bridges are numbered along the chain shown (N, C = ends). [ ]: non-standard residue; d: D form. The star is where a group is joined. Octanoyl(6-Me) = CCC(C)CCCCC(=O)*; Orn = NCCC[CH](N)C(=O)O; Dab = NCC[CH](N)C(=O)O

[
  {
    "molecule": "CC1=CC2C(C(C)C)CCC(C)(O)C2CC1 (stereo not given)",
    "normalized growth": 0.992
  },
  {
    "molecule": "CC(=O)c1cc2c(cc1O)OC(C)(C)C=C2",
    "normalized growth": 0.938
  },
  {
    "molecule": "CCCCc1nc(Cl)c(CO)n1Cc1ccc(-c2ccccc2-c2nn[nH]n2)cc1",
    "normalized growth": 1
  },
  {
    "molecule": "NC(=O)N1c2ccccc2C=Cc2ccccc21",
    "normalized growth": 1.02
  },
  {
    "molecule": "COc1cc(-c2coc3cc(O[C@@H]4O[C@H](CO)[C@@H](O)[C@H](O)[C@H]4O)c(OC)c(O)c3c2=O)cc(O)c1OC",
    "normalized growth": 0.981
  },
  {
    "molecule": "CCNc1nc(Cl)nc(NCC)n1",
    "normalized growth": 1
  },
  {
    "molecule": "CC1(C)S[C@@H]2[C@H](NC(=O)Cc3ccccc3)C(=O)N2[C@H]1C(=O)O",
    "normalized growth": 1.01
  },
  {
    "molecule": "COc1c2occc2c(OC)c2c(=O)cc(C)oc12",
    "normalized growth": 1.01
  },
  {
    "molecule": "c1ccc([C@H]2CN3CCSC3=N2)cc1",
    "normalized growth": 1
  },
  {
    "molecule": "CC1(C)C(=O)[C@@H]2O[C@@H]2[C@@]2(C)C1CC(=O)[C@]1(C)C2CC[C@@]2(C)[C@H](c3ccoc3)OC(=O)[C@H]3O[C@]321 (stereo not given in full)",
    "normalized growth": 0.984
  },
  {
    "molecule": "NC(N)=NC(N)=Nc1ccccc1",
    "normalized growth": 1.02
  },
  {
    "molecule": "O=C(O)c1cc(=O)c2c(Cl)cc(Cl)cc2[nH]1",
    "normalized growth": 1.01
  },
  {
    "molecule": "CCCCCCCCCCCCCCCCCCOCC(O)CO (stereo not given)",
    "normalized growth": 1.01
  },
  {
    "molecule": "O=C(O)c1cc(=O)c2cccc(O)c2[nH]1",
    "normalized growth": 1
  },
  {
    "molecule": "COc1ccc(C2C(=O)c3ccccc3C2=O)cc1",
    "normalized growth": 1.01
  },
  {
    "molecule": "O=c1oc2c(O)c(O)cc3c(=O)oc4c(O)c(O)cc1c4c23",
    "normalized growth": 0.626
  },
  {
    "molecule": "CC(=O)O[C@H]1CC[C@]2(C)C3CC(=O)[C@]4(C)C(C(C)=O)=CCC4C3CC[C@H]2C1 (stereo not given in full)",
    "normalized growth": 1
  },
  {
    "molecule": "CC1(C)C(=O)[C@@H]2C[C@@]3(O)C4=CC(=O)O[C@@H](c5ccoc5)[C@]4(C)CCC3[C@@](C)(C2=O)[C@H]1CC(=O)O (stereo not given in full)",
    "normalized growth": 1
  },
  {
    "molecule": "O=C1c2ccccc2C(=O)C1c1ccccc1",
    "normalized growth": 1
  },
  {
    "molecule": "NC1C[C@H]1c1ccccc1 (stereo not given in full)",
    "normalized growth": 1.01
  },
  {
    "molecule": "COc1ccc(C(=O)O)c(O)c1OC",
    "normalized growth": 1.01
  },
  {
    "molecule": "CCC(C)CCCCC(=O)NC(CCN)C(=O)NC(C(=O)NC(CCN)C(=O)NC1CCNC(=O)C(C(C)O)NC(=O)C(CCN)NC(=O)C(CCN)NC(=O)C(CC(C)C)NC(=O)C(Cc2ccccc2)NC(=O)C(CCN)NC1=O)C(C)O (stereo not given) ({Octanoyl(6-Me)}-[Dab]T[Dab][Dab][Dab]FL[Dab][Dab]T; lactam 4-C; configuration not given here)",
    "normalized growth": 0.992
  },
  {
    "molecule": "CCOc1ccc(NC(C)=O)cc1",
    "normalized growth": 0.996
  },
  {
    "molecule": "CC1=CC(=O)C2=C(C)CC(O)C3C(C)C(=O)OC3C12 (stereo not given)",
    "normalized growth": 1
  },
  {
    "molecule": "CC(C)CC1NC(=O)C(CCCN)NC(=O)C(C(C)C)NC(=O)C2CCCN2C(=O)C(Cc2ccccc2)NC(=O)C(CC(C)C)NC(=O)C(CCCN)NC(=O)C(C(C)C)NC(=O)C2CCCN2C(=O)C(Cc2ccccc2)NC1=O (stereo not given) (cyclo(FPV[Orn]LFPV[Orn]L); configuration not given here)",
    "normalized growth": 1.01
  }
]
